Biological target: UniProtKB Q9Y5S1
Sequence (Q9Y5S1 1-764): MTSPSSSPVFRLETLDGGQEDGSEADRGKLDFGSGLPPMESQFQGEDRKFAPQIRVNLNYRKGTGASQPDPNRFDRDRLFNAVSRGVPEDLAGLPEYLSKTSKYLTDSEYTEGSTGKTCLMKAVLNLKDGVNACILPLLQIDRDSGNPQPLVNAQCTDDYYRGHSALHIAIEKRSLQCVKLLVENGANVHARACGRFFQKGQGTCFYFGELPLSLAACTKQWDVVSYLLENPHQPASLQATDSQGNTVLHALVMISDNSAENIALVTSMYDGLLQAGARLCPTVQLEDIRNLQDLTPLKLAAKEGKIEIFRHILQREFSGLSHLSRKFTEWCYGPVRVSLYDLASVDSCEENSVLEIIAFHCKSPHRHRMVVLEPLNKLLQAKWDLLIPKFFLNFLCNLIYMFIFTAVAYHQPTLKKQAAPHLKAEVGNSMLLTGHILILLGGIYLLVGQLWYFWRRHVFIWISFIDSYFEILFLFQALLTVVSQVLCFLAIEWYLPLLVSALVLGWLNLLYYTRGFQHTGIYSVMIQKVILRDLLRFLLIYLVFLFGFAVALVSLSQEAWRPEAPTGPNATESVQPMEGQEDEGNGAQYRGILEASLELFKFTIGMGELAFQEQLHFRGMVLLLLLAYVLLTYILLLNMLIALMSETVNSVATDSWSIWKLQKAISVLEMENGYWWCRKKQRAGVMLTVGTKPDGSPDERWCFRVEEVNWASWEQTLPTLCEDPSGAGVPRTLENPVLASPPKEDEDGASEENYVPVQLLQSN
Experiment: TRP Family FLIPR Assay, TRPV2
Details: agonist mode; vs EMAX of cannabidiol 300 μM; HEK293 cells (transient); read-out: EC50 hTRPV2
readout_kind: EC50

>  <molecule>
CC(C)(O)c1cnc(N2C[C@@]3(CC[C@@H](F)[C@](C)(Cn4cnc5ccc(C#N)cc54)C3)OC2=O)cn1 (single isomer, unassigned) [Example 5]

>  <readout_kind>
EC50

>  <reported_value>
> 10 µM

$$$$
